Origin of the recorded values: patent US5210193A

# Test system: Serratia marcescens K 84-18
# ASSAY INFO: in vitro antibacterial MIC, agar plate dilution
# Assay type: cell-based
# PARTICULARS: Serratia marcescens, K8418, 18 h, 35° C., read-out: MIC
OBSERVED PROPERTY: MIC (µg/mL)

CN1CCN(c2c(F)c(F)c3c(=O)c(C(=O)O)cn(C4CC4)c3c2F)CC1 ... 0.12

A: CN1CCN(c2cc3c(cc2F)c(=O)c(C(=O)O)cn3C2CC2)CC1C1CC1 (stereo not shown)
B: CCn1cc(C(=O)O)c(=O)c2cc(F)c(N3CCNC(CNC)C3)cc21.Cl.Cl (stereo not shown)
C: O=C(O)c1cn(C2CC2)c2cc(N3CCNC(c4ccco4)C3)c(F)cc2c1=O (stereo not shown)
Incoming: Please order the records by their reported MIC, lowest number first. Note for the reader: the ranking is given by listing the labels in the order requested.
Outgoing: C, A, B

1: CCn1cc(C(=O)O)c(=O)c2cc(F)c(N3CCNC(C(C)(F)F)C3)c(F)c21 (stereo not shown)
2: CCn1cc(C(=O)O)c(=O)c2c(F)c(F)c(N3CCNC(C)C3)c(F)c21 (stereo not shown)
3: O=C(O)c1cn(-c2ccc(F)cc2)c2cc(N3CCNC(c4ccco4)C3)c(F)cc2c1=O (stereo not shown)
Incoming: Please order the records by their reported MIC, lowest number first. Note for the reader: the ranking is given by listing the labels in the order requested.
Outgoing: 1, 2, 3

P: CCn1cc(C(=O)O)c(=O)c2cc(F)c(N3CCNC(CF)C3)c(F)c21 (single isomer, unassigned; (-)) [Example 64]
Q: CCn1cc(C(=O)O)c(=O)c2cc(F)c(N3CCNC(c4ccco4)C3)cc21 (stereo not shown)
R: O=C(O)c1cn(C2CC2)c2cc(N3CCNC(COc4ccccc4)C3)c(F)cc2c1=O (stereo not shown)
Incoming: Please give the order of these molecules when sorted by MIC, largest value leading. Note for the reader: the ranking is given by listing the labels in the order requested.
Outgoing: Q, R, P
